Below, each entry is listed with its recorded growth.
- Tested on: CAKI-1 renal
- experimental details: NCI-60 one-dose screen, 48 h (100 = growth as untreated, 0 = no growth, -100 = all killed)
- condition info: 10 µM unless noted
This is part of a sample that, as a whole, favours compounds with a hit. Of some 83,000 tested, about 20% had one in any assay.
attribute measured: growth (%)

[[record]]
compound = "COc1ccc(-c2cc3c(C)nc(N)nc3n(C3CCC(OCCO)CC3)c2=O)cn1 (centres undefined)"
observed_value = -43.4

[[record]]
compound = "O=S1(=O)OC(c2ccc(O)c(Cl)c2)(c2ccc(O)c(Cl)c2)c2ccccc21"
observed_value = 90.2

[[record]]
compound = "O=C(c1c(F)ccc(NS(=O)(=O)N2CC[C@@H](F)C2)c1F)c1c[nH]c2ncc(-c3cnc(C4CC4)nc3)cc12"
observed_value = 16.7

[[record]]
compound = "Cn1c(=O)c(F)c(Nc2ccc(I)cc2F)c2c(=O)n(C[C@@H](O)CO)cnc21"
observed_value = 41.7

[[record]]
compound = "CCn1cc(-c2ccnc3[nH]c(-c4cccc(CN(C)C)c4)cc23)c(-c2ccc(NC(=O)N(C)C)cc2)n1"
observed_value = 6.96

[[record]]
compound = "C[C@@H](N)c1ccc(C(=O)Nc2ccnc3[nH]ccc23)cc1"
observed_value = 20.6

[[record]]
compound = "CCc1nc2cc(F)c(/C=C/C(=O)NO)cc2c(=O)n1CCc1ccccc1"
observed_value = 0.745

[[record]]
compound = "NS(=O)(=O)c1ccc(CCN2C(=O)/C(=C\\c3ccc(Cl)cc3)C=C2c2ccc3ccccc3c2)cc1"
observed_value = 82.4

[[record]]
compound = "FC(F)c1nc2ccccc2n1-c1nc(N2CCOCC2)nc(N2CCOCC2)n1"
observed_value = -11


* * *

- Test system: NCI/ADR-RES ovarian
- experimental details: NCI-60 one-dose screen, 48 h (100 = growth as untreated, 0 = no growth, -100 = all killed)
- condition info: 10 µM unless noted
Compounds without any hit were thinned out: in the full panel of roughly 83,000, 20% have a hit.
Each entry falls into one class according to its growth; the ranges are small value: < 50%; mid value: ≥ 50% and < 90%; large value: ≥ 90%

[[record]]
molecule = "COC(=O)N[C@@H](C)CNc1nccc(-c2cn(C(C)C)nc2-c2cc(Cl)cc(NS(C)(=O)=O)c2F)n1"
discrete_label = "large value"

[[record]]
molecule = "Cc1cc(C2(c3ccc(O)c(C)c3)OS(=O)(=O)c3ccccc32)ccc1O"
discrete_label = "large value"

[[record]]
molecule = "Cc1ccccc1Nc1nc2nonc2nc1Nc1cccc(C)c1C"
discrete_label = "mid value"

[[record]]
molecule = "O=C(NC1CCNCC1)c1[nH]ncc1NC(=O)c1c(Cl)cccc1Cl"
discrete_label = "mid value"

[[record]]
molecule = "CCCC(=O)OCC1OC(n2cnc3c(=S)nc[nH]c32)C(OC(=O)CCC)C1OC(=O)CCC (stereo not given)"
discrete_label = "small value"

[[record]]
molecule = "CO[C@H](C(=O)N[C@@H](CCCCNC(=O)OCc1ccccc1)C(=O)OC(C)(C)C)[C@@H]1Cc2cc3cc(OC4CC(OC5CC(O)C(O)C(C)O5)C(O)C(C)O4)c(C)c(O)c3c(O)c2C(=O)[C@H]1OC1CC(OC2CC(OC3CC(C)(O)C(O)C(C)O3)C(O)C(C)O2)C(O)C(C)O1 (stereo not given in full)"
discrete_label = "mid value"

[[record]]
molecule = "O=C(Nc1cccc([N+](=O)[O-])c1)c1ccc(Cl)c(Cl)c1"
discrete_label = "mid value"

[[record]]
molecule = "FC(F)c1nc2ccccc2n1-c1nc(N2CCOCC2)nc(N2CCOCC2)n1"
discrete_label = "small value"

[[record]]
molecule = "O=C(Nc1ccc(-c2ccnc(Nc3ccc(N4CCOCC4)cc3)n2)cc1)[C@@H]1CCCN1"
discrete_label = "mid value"

[[record]]
molecule = "COC(=O)CC[C@@H](C)[C@H]1CC[C@H]2C3CC[C@@H]4C[C@@H]5CC[C@]4(C)[C@@]3(O5)[C@H](Br)[C@@H](Br)[C@]12C (stereo not given in full)"
discrete_label = "large value"

[[record]]
molecule = "Cc1cc(N(CCNc2ccnc3cc(Cl)ccc23)Cc2ccc3c(c2)OCO3)nc(N2CCCC2)n1"
discrete_label = "small value"

[[record]]
molecule = "CO[C@H]1C[C@@H]2CC[C@@H](C)[C@@](O)(O2)C(=O)C(=O)N2CCCC[C@H]2C(=O)O[C@H]([C@H](C)C[C@@H]2CC[C@@H](OCCO)[C@H](OC)C2)CC(=O)[C@H](C)/C=C(\\C)[C@@H](O)[C@H](OC)C(=O)[C@H](C)C[C@H](C)\\C=C/C=C/C=C/1C"
discrete_label = "mid value"

[[record]]
molecule = "COCCN1CCN(Cc2ccc(-c3n[nH]c4c3C(=O)c3c(NC(=O)NN5CCOCC5)cccc3-4)cc2)CC1"
discrete_label = "small value"

[[record]]
molecule = "C[C@@H]1COC(Nc2ccc3ncnc(Nc4ccc(OCc5nccs5)c(Cl)c4)c3c2)=N1"
discrete_label = "small value"


* * *

- Test system: NCI-H322M lung
- experimental details: NCI-60 one-dose screen, 48 h (100 = growth as untreated, 0 = no growth, -100 = all killed)
- condition info: 10 µM unless noted
About 83,000 compounds went through this panel and 20% of them were active in at least one assay; those are over-represented in the sample as a whole. The source made the active and inactive calls. Rule for the calls: active = growth percent below 10; inactive = the rest.
Below, each entry is listed with its recorded growth.
attribute measured: growth

[[record]]
compound = "CCCCCCCC(=O)SCC/C=C/[C@@H]1CC(=O)NCc2cccc(n2)C2=N[C@@](C)(CS2)C(=O)N[C@@H](C(C)C)C(=O)N1"
attribute_measured = "growth"
observed_value = "15.6% (inactive)"

[[record]]
compound = "COC1CCC(N2C(=O)CNc3ncc(-c4ccc(C(C)(C)O)nc4)nc32)CC1 (stereo unspecified)"
attribute_measured = "growth"
observed_value = "-5.65% (active)"

[[record]]
compound = "O=C(NO)c1ccc(Cn2c(=O)n(CCc3ccccc3)c(=O)c3ccccc32)cc1"
attribute_measured = "growth"
observed_value = "43.7% (inactive)"

[[record]]
compound = "CC1CCC(n2cnc3c(Cl)ncnc32)O1 (stereo unspecified)"
attribute_measured = "growth"
observed_value = "86.3% (inactive)"

[[record]]
compound = "CCOc1cc2ncc(C#N)c(Nc3ccc(F)c(Cl)c3)c2cc1NC(=O)/C=C/CN(C)C"
attribute_measured = "growth"
observed_value = "0.98% (active)"

[[record]]
compound = "c1cn2cc(-c3ccc4cn[nH]c4c3)nc(Nc3ccc(N4CCOCC4)cc3)c2n1"
attribute_measured = "growth"
observed_value = "70% (inactive)"

[[record]]
compound = "Cn1cc(-c2cnn3c(N)c(Br)c([C@@H]4CCCNC4)nc23)cn1"
attribute_measured = "growth"
observed_value = "48.2% (inactive)"

[[record]]
compound = "O=C1C=CC2(NN=C(c3ccccc3)N2c2ccc(Cl)cc2)c2cccc(O)c21 (stereo unspecified)"
attribute_measured = "growth"
observed_value = "89.5% (inactive)"

[[record]]
compound = "CO[C@H]1C[C@@H]2CC[C@@H](C)[C@@](O)(O2)C(=O)C(=O)N2CCCC[C@H]2C(=O)O[C@H]([C@H](C)C[C@@H]2CC[C@@H](OP(C)(C)=O)[C@H](OC)C2)CC(=O)[C@H](C)/C=C(\\C)[C@@H](O)[C@@H](OC)C(=O)[C@H](C)C[C@H](C)\\C=C/C=C/C=C/1C"
attribute_measured = "growth"
observed_value = "54.5% (inactive)"

[[record]]
compound = "Cc1ccc(-[n+]2c3cc(N)c(C)cc3nc3cc(C)c(Nc4ccccc4)cc32)cc1"
attribute_measured = "growth"
observed_value = "-53.1% (active)"

[[record]]
compound = "Cc1cc2c(-c3nc4ccccn4c3Nc3cccc4ccccc34)c(O)c(O)cc2c(O)c1-c1c(C)cc2c(-c3nc4ccccn4c3Nc3cccc4ccccc34)c(O)c(O)cc2c1O"
attribute_measured = "growth"
observed_value = "59.4% (inactive)"

[[record]]
compound = "COC(=O)Nc1nc2ccc(C(=O)c3ccc(N(C)C4COC4)cc3)cc2[nH]1"
attribute_measured = "growth"
observed_value = "48.3% (inactive)"

[[record]]
compound = "Cn1cnc2c(F)c(Nc3ccc(Br)cc3Cl)c(C(=O)NOCCO)cc21"
attribute_measured = "growth"
observed_value = "11.2% (inactive)"

[[record]]
compound = "CCOc1ccc(N=C(C)Nc2ccc(OCC)cc2)cc1"
attribute_measured = "growth"
observed_value = "124% (inactive)"

[[record]]
compound = "CCOc1cc2ncc(C#N)c(Nc3ccc(OCc4ccccn4)c(Cl)c3)c2cc1NC(=O)/C=C/CN(C)C"
attribute_measured = "growth"
observed_value = "0.942% (active)"

[[record]]
compound = "CC(C)[C@@H]1CC[C@@H]2[C@@H]1[C@H](OC(=O)/C=C/c1ccccc1)[C@]1(C(C)C)C[C@@H](OC(=O)CO)[C@@]2(C)O1"
attribute_measured = "growth"
observed_value = "105% (inactive)"

[[record]]
compound = "O=C(Nc1ccc(C2=NCCCN2)cc1)c1ccc(C(=O)Nc2ccc(C3=NCCCN3)cc2)nc1"
attribute_measured = "growth"
observed_value = "111% (inactive)"

[[record]]
compound = "Cc1cnc(Nc2ccc(OCCN3CCCC3)cc2)nc1Nc1cccc(S(=O)(=O)NC(C)(C)C)c1"
attribute_measured = "growth"
observed_value = "28% (inactive)"

[[record]]
compound = "O=C(COc1ccc(/C=C2\\Cc3ccc(Cl)cc3C2=O)cc1)Nc1nccs1"
attribute_measured = "growth"
observed_value = "118% (inactive)"

[[record]]
compound = "NN1C(=O)CSC1=S"
attribute_measured = "growth"
observed_value = "98.9% (inactive)"

[[record]]
compound = "C=CC[n+]1c(/C=C2\\Sc3ccccc3N2C)sc(-c2ccccc2)c1-c1ccccc1"
attribute_measured = "growth"
observed_value = "24.2% (inactive)"

